- PROTOCOL DETAILS: qHTS assay for small molecules that induce genotoxicity in human embryonic kidney cells expressing luciferase-tagged ATAD5 - cell viability (AID 651634); note: nearly all actives have a fitted effect of over 25% in size; note: potency is the fitted concentration of half-maximal effect
- MEASUREMENT CONTEXT: HEK293T ATAD5-luc cells viability, CellTiter-Fluor, 15.5 h; series mostly up to 83.3 µM
Results filed as inconclusive are left out. Calls of active or inactive are those of the source. Calls come from the whole dose curve.
MEASURED ATTRIBUTE: Potency

>>> endpoint_result("C[C@H](CCC(=O)O)[C@H]1CC[C@H]2[C@@H]3CC[C@@H]4C[C@H](O)CC[C@]4(C)[C@H]3CC[C@]12C")
"inactive"
>>> endpoint_result("CNCc1cc(F)ccc1Oc1ccc(Cl)c(Cl)c1")
"inactive"
>>> endpoint_result("CCCCCCC[N+](CC)(CC)CCCCc1ccc(Cl)cc1")
"inactive"
>>> endpoint_result("O=[N+]([O-])c1cc(Cl)c(Cl)c(Cl)c1Cl")
"inactive"
>>> endpoint_result("C=CC(=O)OCCn1c(=O)n(CCOC(=O)C=C)c(=O)n(CCOC(=O)C=C)c1=O")
"27.3 µM (active)"
>>> endpoint_result("Oc1cc2ccccc2c2ccccc12")
"17.2 µM (active)"
>>> endpoint_result("CCN(C(=O)N(CC)c1ccccc1)c1ccccc1")
"inactive"
>>> endpoint_result("[O-][n+]1ccccc1SSc1cccc[n+]1[O-]")
"7.5 µM (active)"
>>> endpoint_result("CC(C)C(C)(C)C(C)(C)C(C)(C)S")
"inactive"
>>> endpoint_result("CCCCN1CCCC[C@H]1C(=O)Nc1c(C)cccc1C")
"inactive"
>>> endpoint_result("CCOC(=O)O[C@H](C)OC(=O)c1ccc2c(c1)cc(C(=O)NC1CCN(C(C)C)CC1)n2Cc1cc(-c2ccc(Cl)s2)on1")
"57.1 µM (active)"
>>> endpoint_result("O=C(OCC(COC(=O)c1ccccc1)(COC(=O)c1ccccc1)COC(=O)c1ccccc1)c1ccccc1")
"inactive"
>>> endpoint_result("Cc1cccc2c1cc1ccc3cccc4ccc2c1c34")
"inactive"
>>> endpoint_result("CCC(C)(C)C1CCCCC1OC(C)=O (stereo not drawn)")
"inactive"
>>> endpoint_result("NC(=O)N1C(=O)C(C(=O)c2cc(Cl)cs2)c2cc(F)c(Cl)cc21 (stereo not drawn)")
"27.3 µM (active)"
>>> endpoint_result("O=C1c2ccccc2Cc2ccccc21")
"inactive"
>>> endpoint_result("COc1ccc(CN2CCN(C(c3ccc(F)cc3)c3ccc(F)cc3)CC2)c(OC)c1OC")
"21.1 µM (active)"
>>> endpoint_result("CCCCN(CCCC)c1ccc(C(=O)c2ccccc2C(=O)O)c(O)c1")
"inactive"
>>> endpoint_result("CCC(N)(CO)CO")
"inactive"
>>> endpoint_result("CCCCCCCCNC(C)C(O)c1ccc(SC(C)C)cc1 (stereo not drawn)")
"10.6 µM (active)"
>>> endpoint_result("O=c1cccccc1O")
"inactive"
>>> endpoint_result("CCCCC(CC)CN=C(N)NC(N)=NCCCCCCN=C(N)NC(N)=NCC(CC)CCCC (stereo not drawn)")
"26.6 µM (active)"
>>> endpoint_result("CCCCCCCC[N+](CCCCCCCC)(CCCCCCCC)CCCCCCCC")
"30.6 µM (active)"
>>> endpoint_result("CN(C)c1ccc(SC#N)cc1")
"inactive"
>>> endpoint_result("CCCC(C)c1ccccc1O (stereo not drawn)")
"inactive"
>>> endpoint_result("[Cl][Au]([Cl])[Cl]")
"30.6 µM (active)"
>>> endpoint_result("CCCCCCCCS(=O)C(C)Cc1ccc2c(c1)OCO2 (stereo not drawn)")
"inactive"
>>> endpoint_result("[Cl][Bi]([Cl])([c]1ccccc1)([c]1ccccc1)[c]1ccccc1")
"60.8 µM (active)"
>>> endpoint_result("CCCCCCCCCCCCCCCCCC[N+](C)(C)Cc1ccccc1")
"55 µM (active)"
>>> endpoint_result("COc1cc(-c2ccc(N=C=O)c(OC)c2)ccc1N=C=O")
"inactive"
>>> endpoint_result("CCCCCCCCn1sc(Cl)c(Cl)c1=O")
"19.3 µM (active)"
>>> endpoint_result("Cc1onc(-c2c(Cl)cccc2Cl)c1C(=O)N[C@@H]1C(=O)N2[C@@H]1SC(C)(C)[C@@H]2C(=O)O")
"inactive"
>>> endpoint_result("C/C=C(\\C)C(=O)OCc1ccccc1")
"inactive"

###

- PROTOCOL DETAILS: A CellTox Green Cytotoxicity Assay to monitor cytotoxicity in HepG2 cells - 8 hour (AID 1224890); note: nearly all actives have a fitted effect of over 45% in size
- MEASUREMENT CONTEXT: CellTox Green fluorescence; series mostly up to 76.8 µM
Records with an inconclusive call do not appear. The source made the active and inactive calls. Calls come from the whole dose curve; as a rule, active = well fitted activation curve with a large enough effect in the repeat runs; inconclusive = weak or mixed curves; inactive = flat fitted curve, though single readings scatter.
Labels: active, inactive

>>> label("CN(C/C=C/C#CC(C)(C)C)Cc1cccc2ccccc12")
"inactive"
>>> label("Cc1c(C)c2c(c(C)c1O)CCC(C)(COc1ccc(CC3SC(=O)NC3=O)cc1)O2 (configuration not stated)")
"inactive"
>>> label("N/C(=N\\N=C\\c1ccc(Cl)cc1)N/N=C/c1ccc(Cl)cc1")
"active"
>>> label("Oc1cc2ccccc2c2ccccc12")
"inactive"
>>> label("Oc1ccc2cc(SSc3ccc4cc(O)ccc4c3)ccc2c1")
"inactive"
>>> label("Cc1cc(O)c(C(C)(C)C)cc1Sc1cc(C(C)(C)C)c(O)cc1C")
"inactive"
>>> label("NC(=O)CC[C@@H]1NC(=O)[C@H](Cc2ccccc2)NC(=O)[C@H](Cc2ccc(O)cc2)NC(=O)CCSSC[C@@H](C(=O)N2CCC[C@H]2C(=O)N[C@@H](CCCN=C(N)N)C(=O)NCC(N)=O)NC(=O)[C@H](CC(N)=O)NC1=O")
"inactive"
>>> label("CCCCCCC[N+](CC)(CC)CCCCc1ccc(Cl)cc1")
"inactive"
>>> label("CC(C)OC(=O)c1cc2c(OCC(O)CNC(C)(C)C)cccc2[nH]1 (configuration not stated)")
"inactive"
>>> label("NNc1nc(-c2ccc(N)cc2)cs1")
"inactive"
>>> label("Oc1c(Cl)cc(Cl)c2cccnc12")
"inactive"
>>> label("CCN(CC)CCNC(=O)c1c(C)[nH]c(/C=C2\\C(=O)Nc3ccc(F)cc32)c1C")
"active"
>>> label("CCc1cc(SCc2sc(-c3ccc(C(F)(F)F)cc3)nc2CN2CCN(c3ccc(OC)cc3)CC2)ccc1OCC(=O)O")
"inactive"
>>> label("CCCCCCCCCCCCc1ccc(O)cc1")
"active"
>>> label("O=C1C=CC(=O)N1")
"active"
>>> label("Clc1ccc2cc3ccccc3cc2c1")
"inactive"
>>> label("O=C(OCC1CO1)C1CCCCC1C(=O)OCC1CO1 (configuration not stated)")
"inactive"
>>> label("CC(C)(C)C(=O)OCOC(=O)[C@@H]1N2C(=O)[C@@H](NC(=O)[C@H](N)c3ccccc3)[C@H]2SC1(C)C")
"inactive"
>>> label("CCCCc1oc2ccc(NS(C)(=O)=O)cc2c1C(=O)c1ccc(OCCCN(CCCC)CCCC)cc1")
"active"
>>> label("O=C(Nc1cccc(Cl)c1)OCC#CCCl")
"inactive"
>>> label("Cn1cc(C(=O)[C@@H]2CCc3nc[nH]c3C2)c2ccccc21")
"inactive"
>>> label("O=C1CCCCCN1SSN1CCCCCC1=O")
"inactive"

###

- PROTOCOL DETAILS: A CellTox Green Cytotoxicity Assay to monitor cytotoxicity in HepG2 cells - 8 hour (AID 1224890); note: nearly all actives have a fitted effect of over 45% in size
- MEASUREMENT CONTEXT: CellTox Green fluorescence; series mostly up to 76.8 µM
Records with an inconclusive call do not appear. Calls of active or inactive are those of the source. The call rests on the fitted dose curve; in most records, active means well fitted activation curve with a large enough effect in the repeat runs; inconclusive means weak or mixed curves; inactive means flat fitted curve, though single readings scatter.
Possible outcomes: yes (1) = active, no (0) = inactive

>>> label("C=CC(=O)OCC(CO)(COCC(COC(=O)C=C)(COC(=O)C=C)COC(=O)C=C)COC(=O)C=C")
"no (0)"
>>> label("Oc1ccc(N=Nc2ccccc2)cc1")
"no (0)"
>>> label("CSc1ccc(/C=C2/C(C)=C(CC(=O)O)c3cc(F)ccc32)cc1")
"no (0)"
>>> label("NC(=O)N1C(=O)C(C(=O)c2cc(Cl)cs2)c2cc(F)c(Cl)cc21 (stereo not given)")
"no (0)"
>>> label("COc1c(C)c2c(c(O)c1C/C=C(\\C)CCC(=O)O)C(=O)OC2")
"no (0)"
>>> label("O=C1C=CC(=O)N1c1ccc(Cc2ccc(N3C(=O)C=CC3=O)cc2)cc1")
"yes (1)"
>>> label("COCCCC/C(=N\\OCCN)c1ccc(C(F)(F)F)cc1")
"no (0)"
>>> label("Oc1ccc(Cl)cc1Sc1cc(Cl)ccc1O")
"no (0)"
>>> label("Nc1ccc2c3c(cccc13)-c1ccccc1-2")
"yes (1)"
>>> label("CCC1=C[C@@H]2CN(C1)Cc1c([nH]c3ccccc13)[C@@](C(=O)OC)(c1cc3c(cc1OC)N(C)[C@H]1[C@@](O)(C(=O)OC)[C@H](OC(C)=O)[C@]4(CC)C=CCN5CC[C@]31[C@@H]54)C2")
"no (0)"
>>> label("CCCCCCCCCCCC(=O)NCCCN(C)C")
"yes (1)"
>>> label("Nc1nc2ccccc2n1Cc1ccc(F)cc1")
"no (0)"
>>> label("Clc1ccc(C(Cn2ccnc2)OCc2ccc(Sc3ccccc3)cc2)c(Cl)c1 (stereo not given)")
"no (0)"
>>> label("O=C1c2ccccc2Cc2ccccc21")
"no (0)"
>>> label("O=C1Cc2cc(CCN3CCN(c4nsc5ccccc45)CC3)c(Cl)cc2N1")
"no (0)"
>>> label("O=C(Nc1ccc(Oc2ccc(Cl)cc2)c(Cl)c1)c1cc(I)cc(I)c1O")
"no (0)"
>>> label("O=CC=C(c1ccccc1)c1ccccc1")
"no (0)"
>>> label("CC(=O)SC[C@@H](Cc1ccccc1)C(=O)NCC(=O)OCc1ccccc1")
"no (0)"
>>> label("CCOC(=O)O[C@H](C)OC(=O)c1ccc2c(c1)cc(C(=O)NC1CCN(C(C)C)CC1)n2Cc1cc(-c2ccc(Cl)s2)on1")
"yes (1)"
>>> label("CCCCCCOC(=O)c1ccc(O)cc1")
"no (0)"

Every entry's value here was drawn from PubChem BioAssay (Tox21).
